RUN_DESCRIPTION: Metabolic (microsomal) stability assay, human liver microsomes (HLM)
Assay type: in vitro ADME
ASSAY_CONTEXT: predicted clearance as percent of liver blood flow, 1 μM
MEASUREMENT_NAME: HLM QH

Example entries begin here.
In [3]: df
Out[3]:
                            smiles_notation  measurement_name  observed_value
0  C[C@H](Oc1cc(-c2ccn3ncnc3c2)nc(-c2onc3c2CCC[C@@]32CCCc3sc(N)c(C#N)c32)n1)[C@@H]1CCCN1C            HLM QH            <24%
1  C[C@H](Oc1cc(-n2ccc(C(=O)NC3COC3)n2)nc(-c2noc3c2CCC[C@@]32CCCc3sc(N)c(C#N)c32)n1)[C@@H]1CCCN1C            HLM QH            <24%

// switching to the query molecule
Requested read-out: HLM QH. Entry: CO[C@@H]1C[C@@H]([C@H](C)Oc2cc(-c3cnn(C)n3)nc(-c3onc4c3CCC[C@@]43CCCc4sc(N)c(C#N)c43)n2)N(C)C1
56%

----------
RUN_DESCRIPTION: Plasma protein binding assay (PPB), equilibrium dialysis, 10% FCS in PBS
Type: in vitro ADME
ASSAY_CONTEXT: bovine, read-out: PPB 10% FCS (% fu)
MEASUREMENT_NAME: fraction unbound

Examples with answers:
SMILES_NOTATION	OBSERVED_VALUE
C[C@H](Oc1cc(N2CC[C@H](N(C)C)C2)nc(-c2noc3c2CCC[C@@]32CCCc3sc(N)c(C#N)c32)n1)[C@@H]1CCCN1C	0.36
C[C@H](Oc1cc(N2CCNC3(CC3)C2)nc(-c2noc3c2CCC[C@@]32CCCc3sc(N)c(C#N)c32)n1)[C@@H]1C[C@@H](F)CN1C	0.16
C[C@H](Oc1cc(N2C[C@H](C)N[C@@H](C)C2)nc(-c2onc3c2CCC[C@@]32CCCc3sc(N)c(C#N)c32)n1)[C@@H]1CCCN1C	0.94
C[C@H](Oc1cc(-c2cc[nH]n2)nc(-c2noc3c2CCC[C@@]32CCCc3sc(N)c(C#N)c32)n1)[C@@H]1CCCN1C	0.59
C[C@H](Oc1cc(-n2ccc(-c3cn([C@H]4CCOC4)nn3)n2)nc(-c2noc3c2CCC[C@@]32CCCc3sc(N)c(C#N)c32)n1)[C@@H]1CCCN1C	0.05
C[C@H](Oc1cc(-c2ccccn2)nc(-c2noc3c2CCC[C@@]32CCCc3sc(N)c(C#N)c32)n1)[C@@H]1CCCN1C	0.08
[2H]C([2H])([2H])N1C[C@H](F)C[C@H]1[C@H](C)Oc1cc(N2CCN(C([2H])([2H])[2H])C3(CC3)C2)nc(-c2noc3c2CCC[C@@]32CCCc3sc(N)c(C#N)c32)n1	0.09
C[C@H](Oc1cc(N2CC[C@H](N3CCCC3)C2)nc(-c2noc3c2CCC[C@@]32CCCc3sc(N)c(C#N)c32)n1)[C@@H]1CCCN1C	0.16
CNC1CCN(c2cc(O[C@@H](C)[C@@H]3CCCN3C)nc(-c3noc4c3CCC[C@@]43CCCc4sc(N)c(C#N)c43)n2)CC1	0.81
C[C@H](Oc1cc(N2CCC(N(C)C)CC2)nc(-c2noc3c2CCC[C@@]32CCCc3sc(N)c(C#N)c32)n1)[C@@H]1CCCN1C	0.62

(A) C[C@H](Oc1cc(-n2cc3c(n2)CCNC3)nc(-c2noc3c2CCC[C@@]32CCCc3sc(N)c(C#N)c32)n1)[C@@H]1CCCN1C
(B) C[C@H](Oc1cc(-n2cc(-c3cncs3)nn2)nc(-c2noc3c2CCC[C@@]32CCCc3sc(N)c(C#N)c32)n1)[C@@H]1CCCN1C
Recorded fraction unbound values differ for A and B ; which one is higher? Please indicate the selected item by its label.
A

----------
RUN_DESCRIPTION: Solubility measurement (DMSO solution method), McIlvaine buffer pH 4.5 or 6.8
Type: physicochemical
ASSAY_CONTEXT: aqueous buffer, kinetic from dmso stock; McIlvaine buffer pH 4.5; DMSO stock diluted to 250 μM; 24 h shaking at ambient temperature; read-out: solubility pH 4.5
MEASUREMENT_NAME: solubility at 24 h

Sample answers from the record:
>>> df
                                   molecule  observed_value
0  C[C@H](Oc1cc(N2CCNC3(COC3)C2)nc(-c2noc3c2CCC[C@@]32CCCc3sc(N)c(C#N)c32)n1)[C@@H]1C[C@@H](F)CN1C [II-150]     > 149 µg/mL
1  C[C@H](Oc1cc(-n2cncn2)nc(-c2noc3c2CCC[C@@]32CCCc3sc(N)c(C#N)c32)n1)[C@@H]1CCCN1C [II-70]       109 µg/mL
2  C[C@H](Oc1cc([C@H]2CCNC2)nc(-c2noc3c2CCC[C@@]32CCCc3sc(N)c(C#N)c32)n1)[C@@H]1CCCN1C [II-163]     > 137 µg/mL
3  C[C@H](Oc1cc(-n2cc(C3CC3)nn2)nc(-c2noc3c2CCC[C@@]32CCCc3sc(N)c(C#N)c32)n1)[C@@H]1CCCN1C [II-118]        32 µg/mL
4  C[C@H](Oc1cc(N2CCNC[C@@]23CCOC3)nc(-c2onc3c2CCC[C@@]32CCCc3sc(N)c(C#N)c32)n1)[C@@H]1CCCN1C [I-13]     > 148 µg/mL
5  C[C@H](Oc1cc(-n2cc(-c3cccnc3)nn2)nc(-c2noc3c2CCC[C@@]32CCCc3sc(N)c(C#N)c32)n1)[C@@H]1CCCN1C [II-123]       < 1 µg/mL
6  C[C@H](Oc1cc(-n2ccc(C3(O)COC3)n2)nc(-c2noc3c2CCC[C@@]32CCCc3sc(N)c(C#N)c32)n1)[C@@H]1CCCN1C [II-189]     > 152 µg/mL
7  C[C@H](Oc1cc(N2CC[C@H](N(C)C)C2)nc(-c2noc3c2CCC[C@@]32CCCc3sc(N)c(C#N)c32)n1)[C@@H]1CCCN1C [II-49]     > 141 µg/mL
8  CO[C@@H]1C[C@@H]([C@H](C)Oc2cc(N3CCN(C)C4(CC4)C3)nc(-c3noc4c3CCC[C@@]43CCCc4sc(N)c(C#N)c43)n2)N(C)C1 [II-152]     > 132 µg/mL

Moving on to the next molecule.
Which solubility at 24 h reading was recorded for the molecule C[C@H](Oc1nc(-c2noc3c2CCC[C@@]32CCCc3sc(N)c(C#N)c32)nc(N2CCNC3(CC3)C2)c1Cl)[C@@H]1C[C@@H](F)CN1C [II-156] ?
> 142 µg/mL

----------
TARGET_DESC: CYP3A4 (Homo sapiens (Human), UniProt P08684)
Sequence (P08684 whole entry): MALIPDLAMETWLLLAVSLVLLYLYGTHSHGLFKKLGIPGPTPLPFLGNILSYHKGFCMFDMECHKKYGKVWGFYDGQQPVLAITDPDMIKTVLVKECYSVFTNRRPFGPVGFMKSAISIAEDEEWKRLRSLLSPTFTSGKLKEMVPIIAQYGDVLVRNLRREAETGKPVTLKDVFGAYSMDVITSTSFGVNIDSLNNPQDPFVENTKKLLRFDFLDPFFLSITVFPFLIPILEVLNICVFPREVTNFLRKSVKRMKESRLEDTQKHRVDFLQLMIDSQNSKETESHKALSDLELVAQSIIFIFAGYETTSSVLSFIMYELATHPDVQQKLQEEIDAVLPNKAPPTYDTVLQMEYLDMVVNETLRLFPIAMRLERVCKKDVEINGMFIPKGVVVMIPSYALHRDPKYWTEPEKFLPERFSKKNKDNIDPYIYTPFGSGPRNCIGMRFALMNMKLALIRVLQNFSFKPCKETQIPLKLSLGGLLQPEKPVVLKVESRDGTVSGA
RUN_DESCRIPTION: Mechanism based inhibition of CYP3A4 assay (MBI 3A4)
Format: in vitro ADME
ASSAY_CONTEXT: hydroxy-midazolam formation after 30 min vs 0 min preincubation, 25 uM, human liver microsomes
Description: After preincubation, the incubate is diluted 1:10 and the substrate midazolam is added for the main incubation (15 min). The main incubation is quenched with acetonitrile and the formation of hydroxy-midazolam is quantified via LC/MS-MS. The formation of hydroxy-midazolam from the 30 min preincubation relative to the formation from the 0 min preincubation is used as a readout. […]
MEASUREMENT_NAME: MBI 3A4 (%)

>>> df
                            smiles_notation                               target_desc  measurement_name  observed_value
0  C[C@H](Oc1cc(N2C[C@H](C)N(C)[C@@H](C)C2)nc(-c2noc3c2CCC[C@@]32CCCc3sc(N)c(C#N)c32)n1)[C@@H]1CCCN1C  CYP3A4 (Homo sapiens (Human), UniProt P08684)           MBI 3A4              82

(A) C[C@H](Oc1nc(-c2noc3c2CCC[C@@]32CCCc3sc(N)c(C#N)c32)cc(N2C[C@H](C)N[C@@H](C)C2)n1)[C@@H]1CCCN1C
(B) C[C@H](Oc1cc(-c2ccn([C@H]3CCCOC3)n2)nc(-c2noc3c2CCC[C@@]32CCCc3sc(N)c(C#N)c32)n1)[C@@H]1CCCN1C
Exercise: compare A and B ; which one has the greater MBI 3A4? # answer = label of selected item
A
(A: 91%, B: 63%)

----------
TARGET_DESC: KRAS (G12V)::SOS1 (Homo sapiens (Human), UniProt P01116, C118S/G12V)
Sequence (P01116 other isoform, or with tags, fused parts or gaps G12V/C118S): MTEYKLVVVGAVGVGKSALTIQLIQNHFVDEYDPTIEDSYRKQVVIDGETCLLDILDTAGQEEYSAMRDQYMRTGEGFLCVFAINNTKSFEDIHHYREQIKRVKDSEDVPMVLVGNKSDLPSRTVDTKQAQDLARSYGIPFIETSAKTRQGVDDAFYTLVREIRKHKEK
RUN_DESCRIPTION: KRAS::SOS1 AlphaScreen binding assay, KRAS G12V
MEASUREMENT_NAME: IC50 (nM)

Some entries whose results are on file:
>>> print(df.to_string())
                            smiles_notation  measurement_name  observed_value
0  C[C@H](Oc1cc([C@@H]2CCOC2)nc(-c2noc3c2CCC[C@@]32CCCc3sc(N)c(C#N)c32)n1)[C@@H]1CCCN1C              IC50               2
1  C[C@H](Oc1cc(-c2ccccn2)nc(-c2noc3c2CCC[C@@]32CCCc3sc(N)c(C#N)c32)n1)[C@@H]1CCCN1C              IC50               2

(P) C[C@H](Oc1cc(-c2cccc(C(N)=O)c2)nc(-c2noc3c2CCC[C@@]32CCCc3sc(N)c(C#N)c32)n1)[C@@H]1CCCN1C
(Q) C[C@H](Oc1cc(N2CCNC3(CC3)C2)nc(-c2noc3c2CCC[C@@]32CCCc3sc(N)c(C#N)c32)n1)[C@@H]1CCCN1C
Would you let me know which has the greater IC50 value, P or Q ? Answer format: the label of the selected item.
Q
